experiment: protein stability index of a GFP-peptide fusion (GPS, HEK-293T) (PSI 1-6); higher = more stable; conditions: treatment: MLN4924 1 uM, 8 h; c terminus: a fixed tail appended;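 further: 24-mer peptide tiles fused after GFP, lentivirally expressed, FACS-sorted into six equal bins by GFP/DsRed ratio, decoded by Illumina sequencing, PSI is the read-weighted mean bin number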
In this scheme, each record receives a class according to its protein stability index; the ranges are one = under 3, two = from 3 up to 4, three = 4 and over

Here are 8 sequences together with their reported answers.
[
  {
    "Construct sequence": "VWFGGREHVLMFAKLALYPCASLL [TMEM175]",
    "Assigned label": "two"
  },
  {
    "Construct sequence": "ADKKRSGKKKISKADIGAPSGFKH [WAS]",
    "Assigned label": "three"
  },
  {
    "Construct sequence": "HQLVMEGYNWCHDRNVVTIFSAPN [PPP2CA]",
    "Assigned label": "one"
  },
  {
    "Construct sequence": "PQYRSYFMECLVDARMLDHLTKKD [PPFIA4]",
    "Assigned label": "one"
  },
  {
    "Construct sequence": "SHCSQLTTLSFYGNSISISALQSL [PRAME]",
    "Assigned label": "one"
  },
  {
    "Construct sequence": "QPCSIVDVEFLPVYHPSPEESRDP [LPCAT4]",
    "Assigned label": "three"
  },
  {
    "Construct sequence": "FSHSGRYIMTRDYLTVKVWDLNME [PPP2R2B]",
    "Assigned label": "one"
  },
  {
    "Construct sequence": "PYKKPYMETSPSEEDSFYRSSYPQ [TBX5]",
    "Assigned label": "two"
  }
]

Bin? ARLASPLPREEEIVFPEKLNGSVL [ADAMTS4]
three

Lab note: sort AGREVFDYSHRQKEQDVEKELRDG [NFE2L1] into the matching protein stability index band.
three

Exercise: read the entry NRRMVGPDVIPLPHIYGARIKGVE [FAM189A2] and state which class it falls under.
two

Band of LQLFSSTLVGCWSDVVGRRSSLLA [MFSD9] ?
one

* * *

Property: protein stability index; scope: individual sequences
experiment: protein stability index of a GFP-peptide fusion (GPS, HEK-293T) (PSI 1-6); higher = more stable; conditions: treatment: MLN4924 1 uM, 8 h; c terminus: a fixed tail appended
Please reply with the value in numeric form only.

Completed entries (count: 3):
[
  {
    "Construct sequence": "KSRLVQLPPVAVRSLQDLARIAIR [PCMTD2]",
    "Endpoint value": 3.7
  },
  {
    "Construct sequence": "RTSPSCAFRSDDTKGHPRAVSQPF [CDC14A]",
    "Endpoint value": 3.62
  },
  {
    "Construct sequence": "MMKPQAETGEAARDPSLRPARTVL",
    "Endpoint value": 4.33
  }
]

Find the recorded protein stability index belonging to VVPGDHLLEPEVADGGGAPPQGGC [KCNA3] and report it.
5.29

What value of protein stability index has been reported for the following sequence? HHSTQPKRNKRNPIFQDSQDTEVF [FAM104B]
4.63

Item under review: RVVCGIDSSMILTVPGQALACGSN [NEK8] . Reported protein stability index?
2.52

Any idea what its protein stability index is? The sequence is LPIQTPGAFLRTCLLSSNSRSLLT [TLE6]
2.1

What does the data say about its protein stability index? Entry: LICLKKNHEEEVNTLRSQLGDRLN [KRT34]
3.45

Return reported protein stability index; argument: CGINANDVKKLEEAGFHTVEAVAY [RAD51]
2.47

Need protein stability index of APPLPGAESFPGSQVMGSGRGSLS [PLEKHN1] , thanks.
4.61

I'd like to know its protein stability index. The sequence in question is TRQLSLAVKDGLIVETLTVGCKGS [ZMYND11]
3.49

GET /values?readout=protein stability index&item= ETQLKTLAQFPNTLLGNPKKRMRY [KCNA1]
3.61

* * *

test: protein stability index of a GFP-peptide fusion (GPS, HEK-293T) (PSI 1-6); higher = more stable; settings: treatment: MLN4924 1 uM, 8 h; c terminus: a fixed tail appended
If the reported protein stability index equals or exceeds 4, assign 1. If not, assign -1.

Would you please look over these solved cases?
[
  {
    "Construct sequence": "KHSNKKVMRTKSSEKAANDDHSVR [CPXM2]",
    "Assigned label": 1
  },
  {
    "Construct sequence": "VAREYYSEADASHCIQQILESVNH [CAMK2D]",
    "Assigned label": -1
  },
  {
    "Construct sequence": "LVVLRFLTMNSEDERRDAEERASL [KCNK9]",
    "Assigned label": -1
  },
  {
    "Construct sequence": "TVMEKCSDGWWRGSYNGQIGWFPS [NCK2]",
    "Assigned label": -1
  },
  {
    "Construct sequence": "DKFVIVDCRYPYEYEGGHIKTAVN [CDC25B]",
    "Assigned label": -1
  },
  {
    "Construct sequence": "APANVAKIQLRLAGQKRKHSEGRV [LOXL2]",
    "Assigned label": 1
  }
]

Lab note: next sequence to report on.
Say whether RRERELERRELAVEQGERALERRR [ZBED3] shows protein stability index of 4 or more.
1

* * *

Reported values of protein stability index for individual entries
assay: protein stability index of a GFP-peptide fusion (GPS, HEK-293T) (PSI 1-6); higher = more stable; details: treatment: DMSO; c terminus: a fixed tail appended
// print number alone

[
  {
    "Construct sequence": "PSHGSLSHSKAPSGSQMSHNAVTS [NCF4]",
    "Endpoint value": 4.55
  }
]

Fill in: protein stability index of WEQKVLVIVMTTRFEEGGRRKCGQ [PTPN9] is ___
2.28

Quick one: protein stability index for QVQSMVVGEVLKDIETACKLLNIT [SPDEF] ?
2.42

Given the sequence KGAPASWWNHMHFQHHAKPNCFRK [FADS1] , what is its reported protein stability index?
2.87

Need protein stability index of VDEVSVSLRLWDTFGDHHKDRRFA [RHOBTB1] , thanks.
3.01

* * *

assay: protein stability index of a GFP-peptide fusion (GPS, HEK-293T) (PSI 1-6); higher = more stable; conditions: treatment: MLN4924 1 uM, 8 h; c terminus: a fixed tail appended
Mark True for reported protein stability index of 3 or greater; mark False for anything smaller.

# check: protein stability index of LFVGVDCFLLTAMAYDQFLAICRP [OR3A1] is greater than or equal to 3
True

// inclusive: protein stability index at least 3? input: QARLLNPSATRAKPGPQDTVERPF [NOP53]
True

* * *

assay: protein stability index of a GFP-peptide fusion (GPS, HEK-293T) (PSI 1-6); higher = more stable; details: treatment: DMSO; c terminus: a fixed tail appended
Dear colleague, classification is by protein stability index, with ranges listed here: bottom range: < 3; center range: ≥ 3 and < 4; top range: ≥ 4

The examples below pair each entry with its known result.
[
  {
    "Construct sequence": "LLSRLEEEEQDILQRLRENAAHLG [TRIM39]",
    "Assigned label": "center range"
  },
  {
    "Construct sequence": "INGLRRVLDELTLARADLEMQIEN [KRT17]",
    "Assigned label": "center range"
  },
  {
    "Construct sequence": "TLQSITWQMIEQIQFIKLFGMAKI [HNF4A]",
    "Assigned label": "bottom range"
  }
]

Category of ILPKQSRKSMLDAGPDSWGSDAEQ [LCOR] , please.
top range

Which bin, given its protein stability index, does NYYRTWNVVVHDWLYYYAYKDFLW [SOAT1] occupy?
center range

Band of EFVVRCFACPSQALFFKNIMNIID [KCNA4] ?
bottom range

* * *

experiment: protein stability index of a GFP-peptide fusion (GPS, HEK-293T) (PSI 1-6); higher = more stable; details: treatment: DMSO; c terminus: a fixed tail appended
Class TRUE: protein stability index at least 3. Class FALSE: protein stability index below 3.

Known results for sequences:
[
  {
    "Construct sequence": "GVITTTPTPPGQYFYPRGGGSGGG [JUNB]",
    "Assigned label": "TRUE"
  },
  {
    "Construct sequence": "DSSNPYPNFNFNISHQGDYAVLAA [AASDHPPT]",
    "Assigned label": "TRUE"
  },
  {
    "Construct sequence": "SQNSFLVQEVMEEEWNALQSVENC [RPAIN]",
    "Assigned label": "TRUE"
  },
  {
    "Construct sequence": "EEEKEWAFEESKIDEHHFVAVALR [AASDHPPT]",
    "Assigned label": "TRUE"
  }
]

Reported protein stability index at or above 3? EKPLGRVGVFLDFESGSVSFLNVT [TRIM43]
FALSE

Is protein stability index at least 3? Consider MRLSKTLVDMDMADYSAALDPAYT [HNF4A]
FALSE

Identify whether the reported protein stability index of the following sequence is 3 or greater: RSCTPNAEVRHEIQDGTIHLYIYS [KMT2E]
FALSE

Hello, I need to know if SSREVFTSSSSSSSRQTRPILKEQ [KRT16] has measured protein stability index not below 3. Thanks!
TRUE

Hi, just wondering whether PSLEDLFDLCDRTFSLKTVLMIAI [CSNK1G3] shows protein stability index of 3 or higher.
FALSE

Identify whether the reported protein stability index of the following sequence is 3 or greater: ETQLKTLAQFPNTLLGNPKKRMRY [KCNA1]
TRUE

Record VLDILTEQREWVLKSSILIAMAVY [INTS3] ; criterion: protein stability index no lower than 3. Met?
FALSE

protein stability index >= 3 for LRDWEDLQQDFQNIQETHRLYRLK [TMEM120A] ?
TRUE

Kindly determine if protein stability index recorded for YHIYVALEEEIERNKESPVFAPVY [HMOX1] is above or exactly 3.
FALSE

Is it the case that FTKVVQPQEEIATKKLRLTKPSKS [INTS4] has protein stability index reaching or exceeding 3?
TRUE

Textbook exercise: given the entry SWLESCIVGWRCRVGQWVRMENVT [GMPPB] , state whether its protein stability index is greater than or equal to 3.
FALSE

Determine whether measured protein stability index meets or exceeds 3 for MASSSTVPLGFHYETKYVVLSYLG [BCL2L13]
FALSE

Check if protein stability index >= 3 (inclusive). Item: YATLDLNAVKYVSNIKFCSFHPLQ [PDS5B]
FALSE

Please check the record HYRELLDSLPMDAYTHGCILHPEL [GDAP1] and state if its protein stability index is at or above 3.
FALSE

Hi team, for FSFMYILVGLTVIGAFLNLVVLRF [KCNK9] , is the recorded protein stability index at or above 3?
TRUE

Given RQLEIMGKEVSGDQIEDMFEQGKW [STX11] , state whether its protein stability index is at least 3.
TRUE

Please tell me: is the sequence TTSTLKAWLNEHRKNPYPTKGEKI [IRX6] at or over 3 in terms of protein stability index?
TRUE

Source listed as the supplement of paper PMC10567573.
